System: hepatocellular carcinoma (HepG2) cells
Test: Antiproliferative MTT assay, HepG2
Format: cell-based, human
Conditions: SI = [IC50 HFF]/[IC50 HepG2]
observable: SI (HepG2)

INSERT INTO assay_data (molecule, inequalityoperator, datavalue) VALUES
  ('OCC(c1ccccc1)n1cc(Cn2cnc3c(Cl)ncnc32)nn1 (centres unmarked) [Compound 36a]', '>', 1.8),
  ('OCC(c1ccc(Cl)cc1)n1cc(Cn2cnc3c(Cl)ncnc32)nn1 (centres unmarked) [Compound 38a]', '=', 1.2),
  ('OC(Cn1cc(Cn2cnc3c(Cl)ncnc32)nn1)c1ccc(F)cc1 (centres unmarked) [Compound 37b]', '=', 1.1),
  ('OC(Cn1cc(Cn2cnc3c(Cl)ncnc32)nn1)c1ccccc1 (centres unmarked) [Compound 36b]', '=', 1.9),
  ('OC(Cn1cc(Cn2cnc3c(Cl)nccc32)nn1)c1ccc(Br)cc1 (centres unmarked) [Compound 49b]', '=', 5.3);
